Tested on: kynurenine production in HeLa cells
Assay: Inhibition of kynurenine production in HeLa cells
Assay type: cell-based, human
Conditions: Homo sapiens, HeLa, 48 h, HeLa cells, human IFN-γ 50 ng/mL, kynurenine read at 480 nm, read-out: IC50
Consider the following compounds; for each one, report its IC50.
Numbers only, in nM.

Please review the following examples before continuing.
Cc1cc(NC(=O)Nc2cc(OC(C)(C)C(=O)O)ccc2N(CC(C)C)CC(C)C)on1 [Compound 34] | 7.7
Cc1cc(NC(=O)Nc2cc(C3(C(=O)O)CCC3)ccc2N(CC(C)C)CC(C)C)on1 [Compound 17] | 0.8
CC(C)CN(CC(C)C)c1ccc(C2(c3nnn[nH]3)CC(F)(F)C2)cc1NC(=O)Nc1ccc(F)cc1F [Compound 30] | 1

Go through the items and report each one's IC50.
1. CCOc1ncc(Nc2cc(C3(C(=O)O)CCC3)cnc2N2CCC(c3ccccc3)CC2)cn1 [Compound 126]
2. CCOc1ncc(Nc2cc(C3(C(=O)O)CCC3)ccc2N(CC)C2CCOCC2)cn1 [Compound 117]
3. CC(C)CN(c1ccc(C2(C(=O)O)CCC2)cc1NC1CCCC1)C1CCOCC1 [Compound 78]
4. CC(C)CN(CC(C)C)c1ccc(C2(C(=O)O)CCC2)cc1NC(=O)Nc1cncnc1 [Compound 18]
5. CCN(c1ccc(C2(C(=O)O)CCC2)cc1Nc1ccc(C#N)cn1)C1CCOCC1 [Compound 118]
6. CC(C)N(CC1CC1)c1ncc(C2(C(=O)O)CCC2)cc1Nc1ccc(C#N)cn1 [Compound 110]
7. CCOc1ccc(Nc2cc(C3(C(=O)O)CCC3)ccc2N(CC(C)C)C2CCOCC2)cc1 [Compound 73]

1. 7.5
2. 0.9
3. 13.9
4. 6.6
5. 0.2
6. 1
7. 0.4

Go through the items and report each one's IC50.
1. CC(C)CN(CC(C)C)c1ccc(C2(C(=O)O)CC2)cc1NC(=O)Nc1ccc(F)cc1F [Compound 7]
2. COCCN(c1ccc(SC(C)(C)C(=O)O)cc1NC(=O)Nc1ccc(F)cc1F)C1CCCCC1 [Compound 45]
3. CC(C)CN(c1ccc(C2(C(=O)O)CCC2)cc1NC(=O)Nc1ccc(F)cc1F)C1CCCCC1 [Compound 21]
4. Cc1cc(NC(=O)Nc2cc(C3(C(=O)O)CCC3)ccc2N(CC(C)C)C2CCOCC2)on1 [Compound 27]

1. 6.3
2. 78
3. 0.6
4. 5.7
